All values here come from patent US8580762B2.

- Subject Of Test: DOT1L(1-416) (Homo sapiens, UniProt Q8TEK3)
- Sequence (Q8TEK3 1-416): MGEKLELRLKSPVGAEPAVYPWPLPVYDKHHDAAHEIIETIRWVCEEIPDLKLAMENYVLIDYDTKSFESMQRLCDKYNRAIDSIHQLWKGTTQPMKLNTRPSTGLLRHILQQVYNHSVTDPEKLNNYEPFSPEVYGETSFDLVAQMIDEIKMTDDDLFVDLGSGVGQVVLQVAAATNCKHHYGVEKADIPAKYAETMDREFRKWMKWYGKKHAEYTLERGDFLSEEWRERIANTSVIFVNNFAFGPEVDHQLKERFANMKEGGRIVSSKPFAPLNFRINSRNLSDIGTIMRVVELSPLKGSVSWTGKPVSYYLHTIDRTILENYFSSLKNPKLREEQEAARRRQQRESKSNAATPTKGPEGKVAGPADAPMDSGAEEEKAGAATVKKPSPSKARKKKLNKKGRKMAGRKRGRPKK
- Protocol Details: Determination of IC50: DOT1L(1-416) methyltransferase assay, 3H-SAM, oligonucleosome substrate, Flashplate
- Assay type: biochemical
- Condition Info: class symbols; read-out: DOT1L IC50
pIC50: −log10 of the molar value.
Below, each of the molecules is paired with its reported pIC50 value.

Here is how some molecules turned out for pIC50.
CC(C)N(C[C@H]1O[C@@H](n2cnc3c(N)ncnc32)[C@H](O)[C@@H]1O)C1CC(CCc2nc3cc(C4CCC4)ccc3[nH]2)C1 (some centres unmarked) [Compound 111]: > 7.00
CC(C)N(C[C@H]1O[C@@H](n2cnc3c(N)ncnc32)[C@H](O)[C@@H]1O)C1CC(CCc2nc3cc(C4(C#N)CCC4)ccc3[nH]2)C1 (some centres unmarked): > 7.00
CN(C[C@H]1C[C@@H](n2ccc3c(N)ncnc32)[C@H](O)[C@@H]1O)C1CC(CCc2nc3cc(Br)ccc3[nH]2)C1 (some centres unmarked): > 7.00
CC(C)(C)c1ccc2[nH]c(CC[C@H]3C[C@H](N(C[C@H]4C[C@@H](n5ccc6c(N)ncnc65)[C@H](O)[C@@H]4O)C4CCC4)C3)nc2c1: > 7.00

Now consider the entry below.
Would you kindly share the measured pIC50 for CC(C)N(C[C@H]1O[C@@H](n2cnc3c(N)ncnc32)[C@H](O)[C@@H]1O)[C@H]1C[C@@H](CCc2nc3cc(C4CC4)ccc3[nH]2)C1 ? > 7.00
